- Assay protocol: Quantitative High-Throughput drug screen in 47 multiple myeloma cell lines against the NCATS MIPE library collection: KMS21BM_JCRB cell viability assay (AID 1918974)
- Protocol conditions: ATP luminescence, 48 h
- Source text: PI: Beverly A. Mock Ph.D. Laboratory of Cancer Biology and Genetics, Center for Cancer Research, National Cancer Institute, National Institute of Health, Bethesda, Maryland […] 5; Detector; 425V; Luminescence; Viewlux PerkinElmer. […] 1. […] Briefly, the corresponding myeloma cell lines were screened in 1,536-well plates with 500 cells, 5-uL per well for inhibition of cell viability (assessed by measuring ATP levels with CellTiterGlo). […]
Inconclusive results are not listed. The source made the active and inactive calls. Calls follow the shape of the dose curve; as a rule, active = well fitted cell-killing curve with a large enough effect; inconclusive = small, poorly fitted or top-dose-only effect, or effect the other way; inactive = no such curve, though single readings can be large or run the other way.
Returns: one label drawn from active, inactive

Prompt: Assay outcome for CC(C)NCC(O)c1ccc(O)c(O)c1 (stereo unspecified) : what was it?
Completion: active

Prompt: Can you look up the reported call for `Cc1ccc(C(=O)Nc2ccc(S(=O)(=O)O)c3cc(S(=O)(=O)O)cc(S(=O)(=O)O)c23)cc1NC(=O)c1cccc(NC(=O)Nc2cccc(C(=O)Nc3cc(C(=O)Nc4ccc(S(=O)(=O)O)c5cc(S(=O)(=O)O)cc(S(=O)(=O)O)c45)ccc3C)c2)c1` for me?
Completion: inactive

Prompt: Per the records of this test, what outcome belongs to `CN1CCC(=C2c3ccccc3CC(=O)c3sccc32)CC1` ?
Completion: inactive

Prompt: What did this assay record as the result for `O=C(Nc1ccc([N+](=O)[O-])cc1Cl)c1cc(Cl)ccc1O` ?
Completion: active

Prompt: Hi, sorry to bother you, what did the test record for CC1COc2c(N3CCN(C)CC3)c(F)cc3c(=O)c(C(=O)O)cn1c23 (stereo unspecified) ?
Completion: active

Prompt: GET /call?item= `OCCN1CCN(CCCN2c3ccccc3Sc3ccc(C(F)(F)F)cc32)CC1` returns the recorded outcome of this test.
Completion: active

Prompt: # fetch the recorded call for `CN1CCN(CCCN2c3ccccc3Sc3ccc(Cl)cc32)CC1` here
Completion: active

Prompt: Hello, I am checking results. What call was entered for `O=C1c2c(O)ccc(O)c2C(=O)c2c(NCCNCCO)ccc(NCCNCCO)c21` ?
Completion: active

Prompt: Dear all, I need the recorded test outcome for `CC1(C)O[C@H]2CC(=O)OC[C@]23[C@H]2CC[C@@]4(C)[C@H](c5ccoc5)OC(=O)[C@H]5O[C@]54[C@]2(C)C(=O)C[C@@H]13` , thank you.
Completion: inactive

Prompt: Tell me the recorded outcome of this test for `C[C@](N)(Cc1ccc(O)c(O)c1)C(=O)O` .
Completion: active

Prompt: For `O=C(c1ccc(OCCN2CCCCC2)cc1)c1c(-c2ccc(O)cc2)sc2cc(O)ccc12` , which call appears in the assay record?
Completion: active

Values were extracted from PubChem BioAssay (NCATS).
